Where these numbers come from: paper PMC2756588

Target Under Test: Bem1-2, P29366
Sequence (P29366 139-227): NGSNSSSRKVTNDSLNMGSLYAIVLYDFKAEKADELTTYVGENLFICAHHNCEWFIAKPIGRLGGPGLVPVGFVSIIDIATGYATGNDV
Assay Procedure: SPOT array
Study Conditions: median of control spots 4347
Attribute Measured: SPOT intensity
// no unit string in output, number only

GLRRARYKFPGQQKI	2
PSPSSSPPPIPKTAN	0
KRKRRLPVSEDTNTK	0

## Task Looking for the measured SPOT intensity of `ERPKRRAPPPVPKKP` , can you help?
## Result 279

## Task Can you check `NFLRLLIGLPSQNEL` next?
## Result 0

## Task Can you check `LKHGWKPLRPIKLIS` next?
## Result 7

## Task Can you check `KRRAPPPVPKKPSSR` next?
## Result 961
